Catalogue of molecules with associated AC50
tgt: Vascular endothelial growth factor receptor 2 (Homo sapiens, UniProt P35968)
Sequence (P35968 whole entry): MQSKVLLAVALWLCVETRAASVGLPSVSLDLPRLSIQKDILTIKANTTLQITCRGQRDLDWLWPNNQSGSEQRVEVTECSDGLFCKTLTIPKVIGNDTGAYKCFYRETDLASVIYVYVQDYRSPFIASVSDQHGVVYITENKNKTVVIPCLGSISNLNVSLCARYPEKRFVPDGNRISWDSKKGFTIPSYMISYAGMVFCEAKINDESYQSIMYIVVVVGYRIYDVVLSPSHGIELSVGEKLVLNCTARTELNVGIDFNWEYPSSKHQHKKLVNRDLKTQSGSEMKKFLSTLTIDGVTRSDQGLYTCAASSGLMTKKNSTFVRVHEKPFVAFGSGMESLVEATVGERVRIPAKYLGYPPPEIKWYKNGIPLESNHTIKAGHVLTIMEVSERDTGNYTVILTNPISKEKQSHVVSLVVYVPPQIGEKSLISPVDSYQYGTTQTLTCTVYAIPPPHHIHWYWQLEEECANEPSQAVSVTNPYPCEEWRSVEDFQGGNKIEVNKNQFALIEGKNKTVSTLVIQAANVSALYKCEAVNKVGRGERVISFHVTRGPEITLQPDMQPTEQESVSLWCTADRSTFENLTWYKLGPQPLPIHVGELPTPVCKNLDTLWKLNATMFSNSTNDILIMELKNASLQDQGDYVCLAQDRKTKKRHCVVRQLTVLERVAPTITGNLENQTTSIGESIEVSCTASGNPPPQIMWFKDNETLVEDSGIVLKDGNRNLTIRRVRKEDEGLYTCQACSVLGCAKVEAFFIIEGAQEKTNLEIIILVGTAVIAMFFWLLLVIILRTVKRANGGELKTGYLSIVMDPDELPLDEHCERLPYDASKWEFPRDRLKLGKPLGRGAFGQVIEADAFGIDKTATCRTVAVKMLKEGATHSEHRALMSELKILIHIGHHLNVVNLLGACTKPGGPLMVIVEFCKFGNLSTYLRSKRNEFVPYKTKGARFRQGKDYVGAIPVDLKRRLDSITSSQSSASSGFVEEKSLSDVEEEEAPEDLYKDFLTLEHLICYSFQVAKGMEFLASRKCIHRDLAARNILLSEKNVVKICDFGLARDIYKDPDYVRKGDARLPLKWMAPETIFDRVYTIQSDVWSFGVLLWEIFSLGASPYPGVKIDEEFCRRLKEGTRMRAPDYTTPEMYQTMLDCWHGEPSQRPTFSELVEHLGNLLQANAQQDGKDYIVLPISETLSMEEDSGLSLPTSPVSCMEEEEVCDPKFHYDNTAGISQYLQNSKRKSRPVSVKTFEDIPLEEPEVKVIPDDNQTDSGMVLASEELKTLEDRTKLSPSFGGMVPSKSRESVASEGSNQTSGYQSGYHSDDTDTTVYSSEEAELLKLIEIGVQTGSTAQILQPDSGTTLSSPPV
Type: functional
value-kind: AC50

molecule | measurement
CN1CCC(=C2c3ccccc3Sc3ccccc32)CC1 | > 30 µM
C[C@]1(Cn2ccnn2)[C@H](C(=O)O)N2C(=O)C[C@H]2S1(=O)=O | > 30 µM
COc1cc(N2CCC(N3CCN(C)CC3)CC2)ccc1Nc1ncc(Cl)c(Nc2ccccc2P(C)(C)=O)n1 | 0.183 µM
Cc1ncc(COP(=O)(O)O)c(C=O)c1O [PYRIDOXAL PHOSPHATE ANHYDROUS] | > 30 µM
NC(=O)OCC(O)COc1ccc(Cl)cc1 (centres undefined) [CHLORPHENESIN CARBAMATE] | > 30 µM
CCCc1nc(C(C)(C)O)c(C(=O)O)n1Cc1ccc(-c2ccccc2-c2nnn[nH]2)cc1 | > 30 µM
COC(=O)c1ccc(O)cc1 | > 30 µM
N[C@@H](CO)C(=O)O | > 30 µM
CN1C(=O)/C(=N\NC(N)=S)c2ccccc21 | > 10 µM
O=C(O)CCCCC1CCSS1 (centres undefined) | > 30 µM
[H]/N=C(\N/C(=N/[H])Nc1ccc(Cl)cc1)NC(C)C | > 30 µM
O=C1/C(=C2\Nc3ccc(S(=O)(=O)O)cc3C2=O)Nc2ccc(S(=O)(=O)O)cc21 [INDIGOTINDISULFONATE] | 3.05 µM
C[C@H](Cc1cc2c(c(C(N)=O)c1)N(CCCO)CC2)NCCOc1ccccc1OCC(F)(F)F | > 30 µM
CC[C@H](C)C[C@H](C)CCCCCCCCC(=O)N[C@H]1C[C@@H](O)[C@@H](NCCN)NC(=O)[C@@H]2[C@@H](O)CCN2C(=O)[C@H]([C@H](O)CCN)NC(=O)[C@H]([C@H](O)[C@@H](O)c2ccc(O)cc2)NC(=O)[C@@H]2C[C@@H](O)CN2C(=O)[C@H]([C@@H](C)O)NC1=O | > 10 µM
CC(C)N(CCNC(=O)CN1CCCC1=O)C(C)C | > 30 µM
NCC(CC(=O)O)c1ccccc1 (centres undefined) | > 30 µM
Cc1onc(-c2ccccc2)c1-c1ccc(S(N)(=O)=O)cc1 | > 30 µM
CC(C)(O)CNc1nc(Nc2ccnc(C(F)(F)F)c2)nc(-c2cccc(C(F)(F)F)n2)n1 | 20.5 µM
CC(=O)Oc1cc(C(F)(F)F)ccc1C(=O)O | > 30 µM

* * *

tgt: UniProtKB O95342
Sequence (O95342 whole entry): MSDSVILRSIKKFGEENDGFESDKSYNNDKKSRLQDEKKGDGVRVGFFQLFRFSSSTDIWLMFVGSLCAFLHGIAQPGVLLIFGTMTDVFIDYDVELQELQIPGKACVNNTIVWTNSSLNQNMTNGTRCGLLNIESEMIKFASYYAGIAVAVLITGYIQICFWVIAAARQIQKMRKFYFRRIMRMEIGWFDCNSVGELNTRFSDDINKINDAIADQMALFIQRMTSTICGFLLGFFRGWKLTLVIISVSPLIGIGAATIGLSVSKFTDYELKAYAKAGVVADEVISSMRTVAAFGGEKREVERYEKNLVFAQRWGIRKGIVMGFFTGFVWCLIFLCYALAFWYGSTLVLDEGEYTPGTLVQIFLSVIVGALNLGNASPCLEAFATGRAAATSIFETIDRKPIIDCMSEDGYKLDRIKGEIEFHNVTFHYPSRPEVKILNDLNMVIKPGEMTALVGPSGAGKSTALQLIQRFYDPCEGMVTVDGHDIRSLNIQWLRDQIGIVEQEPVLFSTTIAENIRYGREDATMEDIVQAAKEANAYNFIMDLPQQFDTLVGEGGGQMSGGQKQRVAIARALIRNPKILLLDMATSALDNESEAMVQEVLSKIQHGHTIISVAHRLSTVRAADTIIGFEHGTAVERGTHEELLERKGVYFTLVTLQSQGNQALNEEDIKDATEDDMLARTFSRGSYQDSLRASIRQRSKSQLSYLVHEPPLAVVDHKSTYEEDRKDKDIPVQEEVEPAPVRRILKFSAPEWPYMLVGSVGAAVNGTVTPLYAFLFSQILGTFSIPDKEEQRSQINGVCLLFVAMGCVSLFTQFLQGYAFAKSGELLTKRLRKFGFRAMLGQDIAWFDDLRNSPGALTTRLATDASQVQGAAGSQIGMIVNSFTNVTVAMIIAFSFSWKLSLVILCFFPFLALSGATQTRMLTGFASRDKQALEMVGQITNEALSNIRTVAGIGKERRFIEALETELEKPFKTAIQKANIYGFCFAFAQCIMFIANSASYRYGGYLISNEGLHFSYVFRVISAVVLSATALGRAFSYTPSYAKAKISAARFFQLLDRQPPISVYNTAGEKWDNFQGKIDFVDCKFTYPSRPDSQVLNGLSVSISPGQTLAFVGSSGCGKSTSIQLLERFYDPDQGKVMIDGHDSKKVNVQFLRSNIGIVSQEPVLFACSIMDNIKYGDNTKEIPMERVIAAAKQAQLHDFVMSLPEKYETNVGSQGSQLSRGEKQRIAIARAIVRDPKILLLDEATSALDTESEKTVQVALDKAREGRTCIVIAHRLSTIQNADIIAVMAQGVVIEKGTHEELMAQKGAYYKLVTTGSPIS
Format: functional
Lab note: compare AC50 with 60 µM, writing condition met if less and condition not met if equal or more.

compound | class
C[C@@H](NCCCc1cccc(C(F)(F)F)c1)c1cccc2ccccc12 | condition met
C=C[C@H]1C[N@@]2CC[C@H]1C[C@@H]2[C@@H](O)c1ccnc2ccc(OC)cc12 | condition not met
COc1ccc(CC2c3cc(OC)c(OC)cc3CC[N+]2(C)CCC(=O)OCCCCCOC(=O)CC[N+]2(C)CCc3cc(OC)c(OC)cc3C2Cc2ccc(OC)c(OC)c2)cc1OC (stereo not given) | condition not met
CN(C)CCc1c[nH]c2ccc(Cn3cncn3)cc12 | condition not met
CC(C)C[C@H](NC(=O)CNC(=O)c1cc(Cl)ccc1Cl)B(O)O | condition not met
C=CC[C@@H]1/C=C(\C)C[C@H](C)C[C@H](OC)[C@H]2O[C@@](O)(C(=O)C(=O)N3CCCC[C@H]3C(=O)O[C@H](/C(C)=C/[C@@H]3CC[C@@H](O)[C@H](OC)C3)[C@H](C)[C@@H](O)CC1=O)[C@H](C)C[C@@H]2OC [TACROLIMUS ANHYDROUS] | condition met
OC[C@@H](O)[C@@H](O)[C@H](O)[C@@H](O)CO | condition not met
CC(N)C12CC3CC(CC(C3)C1)C2 (stereo not given) | condition not met
CCN(CC)CCNC(=O)c1c(C)[nH]c(/C=C2\C(=O)Nc3ccc(F)cc32)c1C | condition met
COc1cc2nc(N3CCN(C(=O)C4CCCO4)CC3)nc(N)c2cc1OC (stereo not given) | condition not met
CC(C)c1nc(N(C)S(C)(=O)=O)nc(-c2ccc(F)cc2)c1/C=C/[C@@H](O)C[C@@H](O)CC(=O)O | condition not met
C[C@H](CCC(=O)O)[C@H]1CC[C@H]2[C@@H]3[C@@H](O)C[C@@H]4C[C@H](O)CC[C@]4(C)[C@H]3CC[C@]12C | condition not met
CCCN(CCC)C(=O)Cc1c(-c2ccc(Cl)cc2)nc2ccc(Cl)cn12 | condition met
OC[C@H]1O[C@@H](c2ccc(Cl)c(Cc3ccc(O[C@H]4CCOC4)cc3)c2)[C@H](O)[C@@H](O)[C@@H]1O | condition not met
Cc1ccccc1C(=O)Nc1ccc(C(=O)N2CCCC(N(C)C)c3ccccc32)cc1 (stereo not given) | condition met

* * *

The molecules below have reported AC50 for 5-hydroxytryptamine receptor 2C (Homo sapiens).
value-kind: AC50

molecule | value-kind | measurement
OC1(c2ccc(Cl)cc2)c2ccccc2C2=NCCN21 (centres undefined) | AC50 | > 30 µM
CN1CCC(=C2c3ccccc3CCc3cccnc32)CC1 | AC50 | 3.1 µM
CCN(CC)CCN1C(=O)CN=C(c2ccccc2F)c2cc(Cl)ccc21 | AC50 | > 30 µM
Cc1cccc(N2CC(CO)OC2=O)c1 (centres undefined) | AC50 | > 30 µM
C=CCNc1nc(NCC=C)nc(N2CCN(C(c3ccc(F)cc3)c3ccc(F)cc3)CC2)n1 | AC50 | > 30 µM
COc1ccc(CC2c3cc(OC)c(OC)cc3CC[N+]2(C)CCC(=O)OCCCCCOC(=O)CC[N+]2(C)CCc3cc(OC)c(OC)cc3C2Cc2ccc(OC)c(OC)c2)cc1OC (centres undefined) | AC50 | 6.3 µM
COc1cc2nc(N3CCN(C(=O)C4CCCO4)CC3)nc(N)c2cc1OC (centres undefined) | AC50 | > 30 µM
Cc1noc(NS(=O)(=O)c2ccc(N)cc2)c1C | AC50 | > 30 µM
CC(=O)[C@]1(O)Cc2c(O)c3c(c(O)c2[C@@H](O[C@H]2C[C@H](N)[C@H](O)[C@H](C)O2)C1)C(=O)c1ccccc1C3=O | AC50 | 9.3 µM

* * *

tgt: Amine oxidase [flavin-containing] A (Homo sapiens)
Sequence (P21397 whole entry): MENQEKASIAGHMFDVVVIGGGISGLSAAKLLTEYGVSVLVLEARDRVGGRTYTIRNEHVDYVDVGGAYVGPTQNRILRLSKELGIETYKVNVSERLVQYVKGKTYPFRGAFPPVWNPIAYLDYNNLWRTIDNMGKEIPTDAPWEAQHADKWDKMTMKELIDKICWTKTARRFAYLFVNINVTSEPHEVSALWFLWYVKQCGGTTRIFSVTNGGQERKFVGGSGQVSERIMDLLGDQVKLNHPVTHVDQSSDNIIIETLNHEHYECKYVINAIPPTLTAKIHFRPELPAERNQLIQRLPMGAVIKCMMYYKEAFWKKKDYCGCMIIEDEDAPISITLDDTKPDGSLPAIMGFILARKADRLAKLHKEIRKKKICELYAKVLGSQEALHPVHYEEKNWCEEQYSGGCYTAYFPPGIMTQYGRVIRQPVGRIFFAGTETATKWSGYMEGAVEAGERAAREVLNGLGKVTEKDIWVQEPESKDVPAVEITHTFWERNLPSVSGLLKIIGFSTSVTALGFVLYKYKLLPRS
Format: functional
value-kind: AC50

compound | measurement
OC[C@H]1O[C@@](CO)(O[C@H]2O[C@H](CO)[C@@H](O)[C@H](O)[C@H]2O)[C@@H](O)[C@@H]1O | > 30 µM
CCC1(c2ccccc2)CCC(=O)NC1=O (stereo not drawn) [GLUTETHIMIDE] | > 10 µM
Oc1ccc2c(c1)CC[C@H](c1ccccc1)[C@@H]2c1ccc(OCCN2CCCC2)cc1 | > 30 µM
Cc1cc(C(C)(C)C)cc(C)c1CC1=NCCN1 | > 30 µM
CNCc1ccc(-c2[nH]c3cc(F)cc4c3c2CCNC4=O)cc1 | > 10 µM
COc1cc2ncnc(Nc3ccc(F)c(Cl)c3)c2cc1NC(=O)/C=C/CN1CCCCC1 [DACOMITINIB ANHYDROUS] | > 30 µM
OC1(c2ccc(Cl)cc2)c2ccccc2C2=NCCN21 (stereo not drawn) | > 30 µM
CN(C)CCc1c[nH]c2ccc(Cn3cncn3)cc12 | > 30 µM
CC(=O)[C@@]1(O)CC[C@H]2[C@@H]3C=C(Cl)C4=CC(=O)[C@@H]5C[C@@H]5[C@]4(C)[C@H]3CC[C@@]21C | > 10 µM
[H]/N=C(/N)N/C(=N/[H])NCCc1ccccc1 | > 30 µM
COc1cc(N)c(Cl)cc1C(=O)NC1CCN(Cc2ccccc2)CC1 [CLEBOPRIDE] | > 30 µM
NC1CCN(c2nc3c(cc2F)c(=O)c(C(=O)O)cn3-c2ccc(F)cc2F)C1 (stereo not drawn) | > 30 µM
CCCN[C@H]1CCc2nc(N)sc2C1 [PRAMIPEXOLE] | > 10 µM
O=C1CN=C(c2ccccc2)c2cc([N+](=O)[O-])ccc2N1 | > 10 µM
COc1cc2nc(N3CCN(C(=O)C4CCCO4)CC3)nc(N)c2cc1OC (stereo not drawn) | > 10 µM
CNC1=Nc2ccc(Cl)cc2C(c2ccccc2)=[N+]([O-])C1 [CHLORDIAZEPOXIDE] | > 10 µM
COc1ccc2nc3cc(Cl)ccc3c(Nc3cc(CN4CCCC4)c(O)c(CN4CCCC4)c3)c2n1 | > 30 µM
C[N@+]1(CCF)[C@@H]2CC[C@H]1C[C@@H](OC(=O)C(O)(c1ccccc1)c1ccccc1)C2 | > 30 µM

* * *

The molecules below have reported AC50 for Cholecystokinin receptor type A (Homo sapiens, UniProt P32238).

molecule | tgt | AC50
CC(N)C12CC3CC(CC(C3)C1)C2 (stereo not given) [RIMANTADINE] | Cholecystokinin receptor type A (Homo sapiens, UniProt P32238) | > 10 µM
C[N@+]1(CCF)[C@@H]2CC[C@H]1C[C@@H](OC(=O)C(O)(c1ccccc1)c1ccccc1)C2 | Cholecystokinin receptor type A (Homo sapiens, UniProt P32238) | > 30 µM
C=CCNc1nc(NCC=C)nc(N2CCN(C(c3ccc(F)cc3)c3ccc(F)cc3)CC2)n1 [ALMITRINE] | Cholecystokinin receptor type A (Homo sapiens, UniProt P32238) | > 30 µM
Cc1cccc(N2CC(CO)OC2=O)c1 (stereo not given) [TOLOXATONE] | Cholecystokinin receptor type A (Homo sapiens, UniProt P32238) | > 30 µM
CC1(C)S[C@@H]2[C@H](NC(=O)[C@H](N)c3ccccc3)C(=O)N2[C@H]1C(=O)OCOC(=O)[C@@H]1N2C(=O)C[C@H]2S(=O)(=O)C1(C)C [SULTAMICILLIN] | Cholecystokinin receptor type A (Homo sapiens, UniProt P32238) | > 30 µM
